target: NEDD8 activating enzyme (Homo sapiens); assay: Inhibition of recombinant human NAEalpha/N-terminal His-tagged NAEbeta expressed in baculovirus infected insect Sf9 cells using N-terminal FLAG tagged Nedd8 as substrate incubated for 105 mins in presence of N-terminal GST-tagged Ubc12 by FRET assay
Sequence (Q8TBC4 whole entry): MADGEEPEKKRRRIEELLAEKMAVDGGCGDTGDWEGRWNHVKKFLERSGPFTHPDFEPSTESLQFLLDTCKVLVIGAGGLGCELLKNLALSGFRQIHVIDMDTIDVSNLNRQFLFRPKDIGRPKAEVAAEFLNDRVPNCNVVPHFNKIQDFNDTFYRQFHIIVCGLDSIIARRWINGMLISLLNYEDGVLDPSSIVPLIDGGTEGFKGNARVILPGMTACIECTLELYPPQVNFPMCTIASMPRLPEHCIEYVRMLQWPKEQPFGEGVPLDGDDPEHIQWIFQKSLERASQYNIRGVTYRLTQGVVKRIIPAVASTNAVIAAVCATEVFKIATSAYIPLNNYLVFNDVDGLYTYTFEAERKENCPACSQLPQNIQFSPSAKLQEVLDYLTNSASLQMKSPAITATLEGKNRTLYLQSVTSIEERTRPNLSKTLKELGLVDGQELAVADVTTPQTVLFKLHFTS
Sequence (Q13564 whole entry, further chain): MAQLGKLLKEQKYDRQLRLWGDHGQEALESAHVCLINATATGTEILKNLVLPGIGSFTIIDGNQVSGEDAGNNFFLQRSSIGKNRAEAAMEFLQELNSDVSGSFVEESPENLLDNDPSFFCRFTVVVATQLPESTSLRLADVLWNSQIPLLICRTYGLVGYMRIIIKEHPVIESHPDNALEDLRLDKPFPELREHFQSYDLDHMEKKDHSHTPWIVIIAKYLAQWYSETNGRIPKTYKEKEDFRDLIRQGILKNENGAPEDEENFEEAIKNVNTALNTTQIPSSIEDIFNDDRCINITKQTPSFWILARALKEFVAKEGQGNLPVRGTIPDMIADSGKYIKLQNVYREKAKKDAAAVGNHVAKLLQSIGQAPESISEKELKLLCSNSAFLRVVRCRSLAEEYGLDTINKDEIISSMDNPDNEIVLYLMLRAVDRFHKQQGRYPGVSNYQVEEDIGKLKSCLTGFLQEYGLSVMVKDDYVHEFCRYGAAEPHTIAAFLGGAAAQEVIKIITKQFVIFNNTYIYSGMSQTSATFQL
RESULT_TYPE: IC50

{"COMPOUND": "CO[C@@H]1CCc2ccccc2[C@@H]1Nc1cc(O[C@@H]2C[C@@H](COS(N)(=O)=O)[C@@H](O)C2)ncn1", "RESULT": "≤ 500 nM"}
{"COMPOUND": "CC1(C)C[C@H](Nc2ncnc(N[C@@H]3C[C@@H](COS(N)(=O)=O)[C@@H](O)C3)c2F)c2ccccc21", "RESULT": "≤ 500 nM"}

Record `NS(=O)(=O)OC[C@H]1C[C@@H](Nc2cc(N[C@@H]3CCC[C@H]3OCc3ccccc3)ncn2)[C@H](O)[C@@H]1O` . Reported IC50: > 10000 nM

For this compound ( `CO[C@H]1Cc2ccccc2[C@H]1Nc1ncnc(N[C@@H]2C[C@H](COS(N)(=O)=O)[C@@H](O)[C@H]2O)n1` ), measured IC50 is ≤ 500 nM

Per the record, `Cn1c(-c2ccccc2)nc2c(N[C@@H]3C[C@@H](COS(N)(=O)=O)[C@@H](O)C3)ncnc21` has IC50 of ≤ 500 nM

The compound `NS(=O)(=O)OC[C@@H]1C[C@@H](Oc2ncnc3nc(-c4ccc(N5CCCC5)c5ccccc45)[nH]c23)C[C@@H]1O` showed IC50 equal to ≤ 500 nM

Lab note: measured IC50 of `CO[C@H]1Cc2ccccc2[C@H]1Oc1cc(O[C@@H]2C[C@@H](COS(N)(=O)=O)[C@@H](O)C2)ncn1` was 500 to 10000 nM

So, `NS(=O)(=O)OC[C@@H]1C[C@@H](O)[C@H](Nc2cc(N[C@H]3CCc4ccccc43)ncn2)C1` ? Its IC50 was > 10000 nM

Noted for `CC1(C)C[C@H](Nc2ncnc(N[C@@H]3C[C@@H](COS(N)(=O)=O)[C@@H](O)C3)n2)c2ccccc21` : its IC50 reads ≤ 500 nM

Consider `NS(=O)(=O)OC[C@@H]1C[C@@H](Oc2cc(N[C@H]3CCCc4ccccc43)ncn2)C[C@@H]1O` . Its measured IC50 is ≤ 500 nM

IC50 reading for `NS(=O)(=O)OC[C@@H]1C[C@@H](Oc2ccnc3[nH]c(-c4cccc5ccccc45)nc23)C[C@@H]1O` : ≤ 500 nM
